- test.method.notes: AlphaScreen counterscreen against bio-H3K4me2 peptide in the absence of enzyme (artifact signal)
- condition.parameters: effect of the compound when incubated with bio-H3K4me2 peptide (counterscreen, no enzyme)
Counter-ions that a name gives are not always drawn.
Catalogue of Artifact Signal (percent) values
Please respond with the number in % and leave the unit unwritten.

Worked set:
# compound, Artifact Signal (percent) / %
records = [
    ("CC(=O)Oc1c([N+](=O)[O-])cc2c(c1Br)CCCC2 [YU151714]", 1.24),
    ("NC(CO)C(=O)NNCc1ccc(O)c(O)c1O (stereo not shown) [YU033702, BENSERAZIDE HYDROCHLORIDE, reference compound]", 21.46),
    ("Cc1cc(N)c2ccccc2[n+]1CCCCCCCCCC[n+]1c(C)cc(N)c2ccccc21 [YU034372, DEQUALINIUM CHLORIDE, reference compound]", 0.57),
    ("Cc1ccc(-n2sc3ccccc3c2=O)cc1 [YU146026]", 2.88),
    ("O=C(O[C@@H]1Cc2c(O)cc(O)cc2O[C@@H]1c1ccc(O)c(O)c1)c1cc(O)c(O)c(O)c1 [YU153085, EPICATECHIN MONOGALLATE, reference compound]", 85.87),
    ("Cc1ccc(S(=O)(=O)C=CC#N)cc1 (single isomer, unassigned) [YU154885, BAY 11-7082, reference compound]", "−5.88"),
]

Would you kindly look at the next entry?
The reported Artifact Signal (percent) of the compound Cc1ccc(CNn2cnnc2S)cc1 [YU145266] was 1.04

====

Catalogue of Artifact signal: effect of the compound when it is incubated with bio-H3K4me2 peptide values
- test.method.notes: AlphaScreen counterscreen against bio-H3K4me2 peptide in the absence of enzyme (artifact signal)
- condition.parameters: counterscreen, bio-H3K4me2 peptide, no enzyme
The answer should be a number; do not append a unit.

# molecule, numeric.readout
data = [
    ("NS(=O)(=O)c1cccc(NC(=O)c2cccnc2Oc2ccccc2)c1 [YU016812]", 13.27),
]

The reported Artifact signal: effect of the compound when it is incubated with bio-H3K4me2 peptide of the molecule O=C(CCCCCCC(=O)N(c1ccccc1)c1ccccc1)N(c1ccccc1)c1ccccc1 [YU105079] was 43.24

The reported Artifact signal: effect of the compound when it is incubated with bio-H3K4me2 peptide of the molecule O=C(Oc1cc(O)cc2c1C[C@@H](OC(=O)c1cc(O)c(O)c(O)c1)[C@@H](c1cc(O)c(O)c(O)c1)O2)c1cc(O)c(O)c(O)c1 [YU155091, EPIGALLOCATECHIN 3,5-DIGALLATE, reference compound] was −3.13

====

- test.method.notes: AlphaScreen counterscreen against bio-H3K4me2 peptide in the absence of enzyme (artifact signal);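 further: counterscreen run without enzyme against bio-H3K4me2 peptide to remove false positive hits from the JARID1 demethylase AlphaScreen screen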
- condition.parameters: effect of the compound when incubated with bio-H3K4me2 peptide (counterscreen, no enzyme)
Catalogue of Artifact Signal (percent) values
Please respond with the number in % and leave the unit unwritten.

Worked set:
# molecule, Artifact Signal (percent) / %
records = [
    ("COCc1cc(O)c(O)c(O)c1-c1c(COC)cc(O)c(O)c1O [YU154887, reference compound]", 42.41),
    ("Clc1ccc2nc(-c3ccccn3)c(Nc3ccc4c(c3)OCCO4)n2c1", 0.87),
]

The reported Artifact Signal (percent) of the molecule COC(=O)NC1(C(F)(F)F)C(=O)NC(C)=C1C(=O)OC (centres unmarked) was 2.14

The reported Artifact Signal (percent) of the molecule CC(NC(=S)Nc1ccc2c(c1)OCO2)c1ccncc1 (centres unmarked) was −1.93

The reported Artifact Signal (percent) of the molecule Cn1c(S)nnc1CSCc1ccc(F)cc1 was −3.87
